Tested on: A-549 (lung cancer) cells
measurement description: In vitro cytotoxicity, MTT/MTS cell viability assay, A-549
Type: cell-based, human
condition: Homo sapiens, A549, 48 h, read-out: IC50 ± SD, A-549
endpoint name: IC50 (µM)
Report as a plain number; the unit µM is understood.

Tell me the measured IC50 of COc1c(O)cc2oc3cc(O)c(CC(O)C(C)(C)O)c(O)c3c(=O)c2c1CC=C(C)C (stereo not shown) , please.
19.8

Would you kindly repeat that for COc1cccc2c1C(=O)c1c(O)c3c(c(O)c1C2=O)C[C@@](O)(C(=O)CO)C[C@@H]3O[C@H]1C[C@H](N)[C@H](O)[C@H](C)O1 [ADM, Adriamycin, reference compound] ?
0.3

One more compound: COc1c(O)cc2oc3cc(O)c(CC(O)C(C)(C)O)c(O)c3c(=O)c2c1CCC(C)C (stereo not shown)
36
